# test-summary: viability loss in pontine glioma line – cell-based, SU-DIPG-XXV, MIPE5.0, CellTiter-Glo, qHTS, dose response (AID 1347065);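 note: cells exposed to compound for 48 hours before ATP readout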
# stated-conditions: CellTiter-Glo ATP luminescence
Results filed as inconclusive are left out. Calls of active or inactive are those of the source. No cut-off is given here; in the data, nearly all actives have AC50 up to about 26 µM.
Assignment: determine reported AC50 for the given compounds.

Given the compound "CC[C@@H]1C(=O)N(C)c2cnc(Nc3ccc(C(=O)NC4CCN(C)CC4)cc3OC)nc2N1C1CCCC1" , what is its reported AC50?
37.2 nM (active)

Entry to check: "COc1cc2c(Oc3ccc(-c4cnc(Nc5ccc(F)cc5)n(C)c4=O)cc3F)ccnc2cc1OCCCN1CCOCC1"
2090 nM (active)

Moving on to the next compound: "CO[C@H]1/C=C/O[C@@]2(C)Oc3c(C)c(O)c4c(O)c(c(/C=N\N5CCN(C6CCCC6)CC5)c(O)c4c3C2=O)NC(=O)/C(C)=C\C=C\[C@H](C)[C@H](O)[C@@H](C)[C@@H](O)[C@@H](C)[C@H](OC(C)=O)[C@@H]1C"
26300 nM (active)

Here is the next compound: "COc1cc(OC)cc(N(CCNC(C)C)c2ccc3ncc(-c4cnn(C)c4)nc3c2)c1"
83.3 nM (active)

----------
# test-summary: viability loss with induced miR-34 in A549 – imaging, A549 dox-inducible miR-34, nuclei and caspase counts, primary screen (AID 1347080)
# stated-conditions: A549 miR-34 inducible, Hoechst nuclei count, 48 h; hits give low values; cell number ratio, induced over uninduced
For each of the molecules below, state its fold change.
Number only, please.

Dear colleague, I am looking for the recorded fold change of the following molecule: "CN(C)C(=O)[C@H](O)[C@H](Cc1ccccc1)NC(=O)c1cc2cc(Cl)ccc2[nH]1"
0.925

// same read-out, input: "CCCCC[C@H](O)/C=C/[C@@H]1[C@H](CCCCCCC(=O)O)[C@H](O)C[C@H]1O"
0.963

Another molecule: "CCCCC[C@H]1/C=C/[C@@H]2[C@@H](C/C=C\CCCC(=O)O1)[C@@H](O)C[C@H]2O"
0.933

// repeat for "CCCCCCCCCCCCc1ccc(S(=O)(=O)Nc2nncs2)cc1" and report
0.927

Then this molecule: "O=C1NN(C(=O)Nc2ccc(Br)cc2)[C@@H](c2ccccc2)[C@@H]1c1ccccc1"
0.887

Check "CCCCC[C@H](O)/C=C/[C@H]1CC[C@@H](O)[C@@H]1C/C=C\CCCC(=O)O" too.
0.973

Another molecule: C[C@@H]1CC[C@H]2[C@@H](C)C(O)O[C@@H]3OC4(C)CC[C@@H]1[C@]32OO4 (some centres not stated)
0.843

Okay, and "Cn1cnnc1Sc1c([N+](=O)[O-])ncn1C" ?
0.949

Also need "CCCCCCCCCCCC(=O)O" , thanks.
1.01

Please give the result for "Cc1cc(-c2ncc(CC(=O)Nc3ccc(-c4cnccn4)cn3)cc2C)ccn1" too.
0.911

"CCCCCC#CCC#CCCCCCCCC(=O)O" , same question.
0.999

And then "CCCCC[C@H](O)/C=C/[C@@H]1[C@@H](C/C=C\CCCCO)[C@@H](O)C[C@H]1O" , what is it?
0.871

Now the same for "O=C(Cc1ccccc1Nc1c(Cl)cccc1Cl)Oc1ccc(-c2cc(=S)ss2)cc1"
0.933

How about this molecule: CC(C)=CCC/C(C)=C/CC/C(C)=C/C(O)P(=O)(O)O (configuration not stated)
0.968

Further, for "c1ccc(-c2n[nH]c3c2oc2ccccc23)cc1" ?
0.891

Next record, please: "CCCCOc1ccc(C(=O)Nc2ccc(F)cc2F)cc1"
0.889

Next up: "C=CC[C@@H]1/C=C(\C)C[C@@H](C)C[C@H](OC)[C@H]2O[C@@](O)(C(=O)C(=O)N3CCCC[C@H]3C(=O)O[C@H](/C(C)=C/[C@@H]3CC[C@@H](O)[C@H](OC)C3)[C@H](C)[C@@H](O)CC1=O)[C@H](C)C[C@@H]2OC"
0.908

Also need "O=C(Nc1cn[nH]c1-c1nc2ccc(CN3CCOCC3)cc2[nH]1)NC1CC1" , thanks.
1.08

Ok, now O=C(O)C(O)Cc1ccc(O)c(O)c1 (configuration not stated)
0.928

Also "O=C(c1ccc(C(=O)N2CCC(N3CCCC3)CC2)c(Nc2ccccc2)c1)N1CCC(N2CCCC2)CC1" , if possible.
0.897

Same again, this time with "O=C(NCCCCN1CCN(c2cccc(Cl)c2Cl)CC1)c1ccc2c(c1)Cc1ccccc1-2"
0.929

What about "O=C(NCc1ccccc1)c1csc(Nc2ccncn2)n1" ?
0.918

Same read-out for "CCOC(=O)CCNc1cc(N2CCc3ccccc3CC2)nc(-c2ccccn2)n1" ?
0.698

Follow-up item: "O=C(CCCC[C@@H]1SC[C@@H]2NC(=O)N[C@@H]21)NCCCC[C@H](NC(=O)CCN1C(=O)C=CC1=O)C(=O)O"
0.911

Same for "COc1cc(NC(=O)c2ccc(-c3ccc(Cl)cc3)o2)cc(OC)c1"
0.861

Now this one: O=C(O)CCCCCCC1C(=O)N(Cc2ccccc2)C(=O)N1NCC(O)C1CCCCC1 (configuration not stated)
0.813

Moving on to "CN(C)Cc1ccc(-c2nc3cccc4c3n2CCNC4=O)cc1"
0.89

What about "O=C(O)CCCCCCCCCCCNC(=O)NC1CCCCC1" ?
0.963

Can you check "COc1ccc(/C=C/C(=O)Nc2c(O)cccc2C(=O)O)cc1OC" next?
0.585

Likewise for "O=C(O)c1c[nH]c2c(ccc3cccnc32)c1=O" ?
0.93

Repeat with NC(Cn1ccc(=O)n(Cc2ccccc2C(=O)O)c1=O)C(=O)O (configuration not stated)
0.925

How about "CNC(=O)c1cc(Oc2ccc(NC(=O)Nc3ccc(Cl)c(C(F)(F)F)c3)c(F)c2)ccn1" ?
0.87

Another molecule: "CCCCC/C=C\C=C\[C@H](O)CCCCCCCC(=O)O"
1.01

Next up: "O=C(c1cc(Cc2n[nH]c(=O)c3ccccc23)ccc1F)N1CCN(C(=O)C2CC2)CC1"
0.871

Let us now turn to "C1CCC2(CC1)CCNCC2"
0.955

Proceed to CCC1(c2ncc[nH]2)Cc2ccccc2O1 (configuration not stated)
0.963

Also "Nc1ccccc1NC(=O)c1ccc(CNc2nccc(-c3cccnc3)n2)cc1" ?
1.16

Now try "CCCCCCCCCCCCCCCCC(=O)NCCO" .
1.04

Try this molecule next: "CNC(=O)c1ccc(N2C(=S)N(c3ccc(C#N)c(C(F)(F)F)c3)C(=O)C2(C)C)cc1F"
0.873

Would you kindly repeat that for "O=C(Cc1ccc(-c2ccc(OCCN3CCOCC3)cc2)cn1)NCc1ccccc1" ?
1.21

Lookup "CC/C=C\C/C=C\C/C=C\C/C=C\CCCCC(=O)O"
0.875

Repeat with "CC(=O)NCCc1c(Cc2ccccc2)[nH]c2ccccc12"
1.03
